- Test system: Plasmodium falciparum
- method.summary: Calibr Malaria Delayed Death Assay SOP
- Assay type: functional, organism-based
- Design: scale not given: in the data most compounds retested in dose-response had high values
- particulars: concentration 4.99e-06 (unit not given; other assays of the set use mol/L)
The whole screen tested about 38,000 compounds, of which about 1,200 (3.2%) showed an effect of 50% or more. The median lay at about -58%. What follows is part of a selection rich in strong results, with near analogues and random picks from the rest.
Please assign false (0) whenever Percent Effect is at or above -20%, and true (1) whenever it is below.

Exercise: Is it true that Percent Effect reported for `Cc1csc2c(N3CCC(NCCCc4ccncc4)CC3)ncnc12` is less than -20%?
Key: false (0)

Exercise: Is it true that Percent Effect reported for CCCc1nc(N2CCCC(CCOC)C2)c2cnn(C)c2n1 (configuration not stated) is less than -20%?
Key: true (1)

Exercise: Is it true that Percent Effect reported for `Cc1cccc(CNC2CCN(CCc3ccncc3)CC2)c1C` is less than -20%?
Key: false (0)

Exercise: Is it true that Percent Effect reported for `CC(C)NC(=O)CSc1nc2c(cnn2CCO)c(=O)[nH]1` is less than -20%?
Key: false (0)

Exercise: Is it true that Percent Effect reported for COC(=O)C(O)C1CCN(CCc2ccncc2)CC1 (configuration not stated) is less than -20%?
Key: true (1)

Exercise: Is it true that Percent Effect reported for `Cc1ccc(CNC2CCN(CCc3ccncc3)CC2)s1` is less than -20%?
Key: false (0)

Exercise: Is it true that Percent Effect reported for N#Cc1ccc(CNC(=O)NC2CCN(CC(F)(F)F)C2)cc1 (configuration not stated) is less than -20%?
Key: true (1)

Exercise: Is it true that Percent Effect reported for `CC(C)CCN1CCN(CC(=O)Nc2ccc3nsnc3c2)CC1` is less than -20%?
Key: true (1)

Exercise: Is it true that Percent Effect reported for `O=C(Cn1ccc2cc(Br)ccc21)NC[C@@H]1CCCN2CCCC[C@H]12` is less than -20%?
Key: false (0)

Exercise: Is it true that Percent Effect reported for `N#Cc1ccc(CNC(=O)NC2CCN(c3ncccn3)CC2)cc1` is less than -20%?
Key: true (1)

Exercise: Is it true that Percent Effect reported for `O=C(O)C1CCN(C(=O)CCn2ccc3cc(Br)ccc32)CC1` is less than -20%?
Key: true (1)

Exercise: Is it true that Percent Effect reported for `Cc1csc2c(N3CCC(Cn4cc(C(C)(C)O)nn4)CC3)ncnc12` is less than -20%?
Key: false (0)

----------
- Test system: Plasmodium falciparum
- method.summary: Calibr Malaria Delayed Death Assay SOP
- Assay type: functional, organism-based
- Design: scale not given: in the data most compounds retested in dose-response had high values
- particulars: concentration 4.99e-06 (unit not given; other assays of the set use mol/L)
About 1,200 (3.2%) of roughly 38,000 compounds showed an effect of 50% or more. The median lay at about -58%. This is one part of a sample in which strong results are shown more often than they occur.
Please assign F whenever Percent Effect is at or above -40%, and T whenever it is below.

As a guide, the following entries are already answered.
CC1(C)CN(C(CNS(C)(=O)=O)c2ccc(Cl)cc2)CCO1 (centres undefined)	F
Cc1ccccc1C(NC(=O)NCC1(CO)CC1)C1CC1 (centres undefined)	T
O=C(C1CNCCO1)N1CCCC(c2ccccc2)(c2ccccc2)C1 (centres undefined)	F
CC(=O)C1(c2ccccc2)CCN(C(=O)C2CNCCO2)CC1 (centres undefined)	T
COc1cc2nc(C)n(CC(=O)NCCC(C)C)c(=O)c2cc1OC	T

Exercise: Is it true that Percent Effect reported for FC1(F)CCNCC12CCN(c1cccnc1)C2.O=C(O)C(F)(F)F.O=C(O)C(F)(F)F (centres undefined) is less than -40%?
Key: F

Exercise: Is it true that Percent Effect reported for CC(=O)C1(c2ccccc2)CCN(C(=O)CC2CNCCO2)CC1 (centres undefined) is less than -40%?
Key: T

Exercise: Is it true that Percent Effect reported for `O=C(O)C(F)(F)F.O=C(O)[C@]12CCCN(Cc3ccsc3)C[C@H]1CN(c1ncccn1)C2` is less than -40%?
Key: T

Exercise: Is it true that Percent Effect reported for `CN(C)c1ncc(CNC(=O)Nc2ccccc2F)n1C` is less than -40%?
Key: F

Exercise: Is it true that Percent Effect reported for Cn1ccnc1CN1CCC(F)(F)C2(CCN(c3cnccn3)C2)C1.O=C(O)C(F)(F)F (centres undefined) is less than -40%?
Key: F

Exercise: Is it true that Percent Effect reported for `Cc1c(C(=O)NCC(C)(C)S(C)(=O)=O)cccc1-c1ccccn1` is less than -40%?
Key: T

Exercise: Is it true that Percent Effect reported for c1cnc(N2CCCC3(CCN(Cc4ccsc4)C3)C2)nc1 (centres undefined) is less than -40%?
Key: F

Exercise: Is it true that Percent Effect reported for `COC[C@H]1CN(CC2CC2)C(=O)[C@@H]2CCN(Cc3ccoc3)CC[C@H]12.O=C(O)C(F)(F)F` is less than -40%?
Key: T

Exercise: Is it true that Percent Effect reported for CC(C)CC(NC(=O)c1ccco1)c1nnc2ccccn12 (centres undefined) is less than -40%?
Key: T

Exercise: Is it true that Percent Effect reported for O=S(=O)(NCCN1CCCCC1Cn1cncn1)c1ccccc1 (centres undefined) is less than -40%?
Key: T

Exercise: Is it true that Percent Effect reported for `CO[C@H]1CN(C(C)C)C[C@@H]1NC(=O)Nc1ccc2oc(C)cc2c1` is less than -40%?
Key: F

Exercise: Is it true that Percent Effect reported for `COc1ccc(Cn2cc(C(=O)N(C)Cc3ccn[nH]3)nn2)cc1` is less than -40%?
Key: F

Exercise: Is it true that Percent Effect reported for `CO[C@@H]1CCN(Cc2nccs2)C[C@@H]1Cc1ccccc1.O=C(O)C(F)(F)F` is less than -40%?
Key: F

----------
- Tested on: Plasmodium falciparum
- method.summary: Calibr Malaria Delayed Death Assay SOP
- Format: functional, organism-based
- Set-up: scale not given: in the data most compounds retested in dose-response had high values
- particulars: concentration 4.99e-06 (unit not given; other assays of the set use mol/L)
Out of some 38,000 compounds screened, about 1,200 (3.2%) showed an effect of 50% or more. The median lay at about -58%. For the sample, strong results were picked, then their nearest neighbours and some compounds at random.
Please respond with reported Percent Effect for every item in the list.
Answers are plain numbers, in %.

CC(C)CN1CCCC2(CCN(c3ccc(C#N)cn3)C2)C1.O=C(O)C(F)(F)F (stereo not given)	4.981

List the reported Percent Effect of each compound below.
1. CCSc1cc(C(=O)NCCC(=O)N(C)C)ccn1
2. O=C(O)C(F)(F)F.c1ccc(N2CCCC3(CCN(Cc4cccs4)C3)C2)nc1 (stereo not given)
3. CC(C)n1ccnc1C1CCN(C(=O)c2ccccc2)CC1
4. O=C(NCc1ccco1)[C@H]1C[C@H]2OCC[C@H]2N(C(=O)c2ccnnc2)C1
5. Cc1cccc(C(C(=O)NCC2(O)CCCCC2)N(C)C)c1 (stereo not given)
6. CS(=O)(=O)C1(C(=O)NC2CCc3nccn3C2)CCCC1 (stereo not given)
7. O=C(O)C(F)(F)F.O=C(O)C(F)(F)F.c1cnc(N2CCOCC3(CCCN(Cc4cccs4)C3)C2)nc1 (stereo not given)

Key:
[-118.1, 72.7, -13.68, -30.68, -49.85, -116.8, -21.37]

List the reported Percent Effect of each compound below.
1. Cc1ccc(C(=O)Nc2nnc(C(C)C)s2)c(-n2cnnn2)c1C
2. CC(=O)N(C)CC(=O)NCC1(c2cccc(C)c2)CCCC1

Key:
-117.2
-51.91

----------
- Tested on: Plasmodium falciparum
- method.summary: Calibr Malaria Delayed Death Assay SOP
- Format: functional, organism-based
- Parameters: scale not given: in the data most compounds retested in dose-response had high values
- particulars: concentration 4.99e-06 (unit not given; other assays of the set use mol/L)
Among all 38,000 compounds or so, about 1,200 (3.2%) showed an effect of 50% or more. The median lay at about -58%. Many of the other results were omitted from the sample, so strong results are more common in it than they were.
Please respond with reported Percent Effect for every item in the list.
One number for each entry, in %.

CCOc1ccc(C(=O)n2cccn2)cc1	-77.79
CN1CCN(S(=O)(=O)c2cccnc2)c2cnccc21	-116.1
C[C@]1(O)CCN(Cc2c[nH]cn2)C[C@@H]1Oc1cccc(F)c1	-164.2
CCSc1cc(C(=O)NC2CCN(C(=O)c3ccncc3)CC2)ccn1	-119
O=C(Cn1nc(Br)nc1Br)N1CCCCC1	-129.7

Exercise: Please indicate Percent Effect recorded for `CCN(CC)S(=O)(=O)NC1CCN(c2ccc(OC)cc2)CC1`
Key: -62

----------
Please respond with reported Percent Effect for every item in the list.
- Tested on: Plasmodium falciparum
- method.summary: Calibr Malaria Delayed Death Assay SOP
- Format: functional, organism-based
- Set-up: scale not given: in the data most compounds retested in dose-response had high values
- particulars: concentration 4.99e-06 (unit not given; other assays of the set use mol/L)
Hit rate of the full screen: of about 38,000 compounds, about 1,200 (3.2%) showed an effect of 50% or more. The median lay at about -58%. The sample holds strong results, similar compounds and a random draw of the others, so the mix is not that of the screen.
Numbers only, in %.

CN(C)CCN(Cc1ccc(Cl)cc1)C(=O)c1ccn(C)c(=O)c1	-75.96
Cc1nc(C)n(CC2CCCCN2c2ncnc3ccsc23)n1 (centres undefined)	-49.26
COc1nn(C)c2c1CCCN(C(=O)c1ccc3ccccc3n1)C2.O=C(O)C(F)(F)F	-93.98

List the reported Percent Effect of each molecule below.
1. CN(Cc1ccccn1)C1CC2(CCN(Cc3ccccn3)CC2)C1.O=C(O)C(F)(F)F.O=C(O)C(F)(F)F
2. CCc1ncc2c(n1)CN(Cc1nnc(CC)o1)CC2
3. CC(=O)NCc1ccc(C(=O)N2CCCC(n3cncn3)C2)o1 (centres undefined)
4. FC1(F)CCN(Cc2cccnc2)CC12CCN(c1cnccn1)C2.O=C(O)C(F)(F)F.O=C(O)C(F)(F)F.O=C(O)C(F)(F)F (centres undefined)
5. Cc1cnc(C(=O)N(CCN(C)C)Cc2ccc(Cl)cc2)cn1
6. O=C(O)C(F)(F)F.O=C(O)C(F)(F)F.O=C(c1c[nH]cn1)N1CCC(F)(F)C2(CCN(c3ccccn3)C2)C1 (centres undefined)
7. O=C(O)[C@@H]1CN(C(=O)c2ccc(F)c(F)c2)C[C@H]1c1cccc(F)c1

Key:
1: -38.28; 2: -50.82; 3: -131.6; 4: -45.54; 5: -38.51; 6: -115.9; 7: -108.3

List the reported Percent Effect of each molecule below.
1. COc1ccccc1CC(C)CC(=O)O (centres undefined)
2. NCc1ccccc1Sc1ccc(O)cc1.O=C(O)/C=C\C(=O)O
3. Cc1ccc(CN2CCc3onc(COc4cccnc4)c3C2)s1.O=C(O)C(F)(F)F.O=C(O)C(F)(F)F
4. Cc1cccc(N2CCN(C(=O)C3CC4(CCNCC4)CN3)CC2)n1 (centres undefined)
5. Cc1cc(C(=O)N(CCN(C)C)Cc2ccc(Cl)cc2)no1

Key:
1. -155.2
2. 55.63
3. 3.567
4. -69.89
5. 51.61

List the reported Percent Effect of each molecule below.
1. O=C(C1CC2(CCNCC2)CN1)N1CCN(c2ccccc2)CC1 (centres undefined)
2. COc1ccnc(N2CCC(OCCN3CCCCC3)C2)n1 (centres undefined)
3. Cn1c(CC(=O)O)c(Sc2ccccc2)c2ccccc21
4. OC(CNc1ccncn1)CN1CCCCCC1 (centres undefined)

Key:
-125.3
51.05
-130
-2.039
